Assay: AUC (0 to infinity) in Beagle dog at 150 mg/kg, administered via oral gavage measured up to 24 hrs post dose by LC/MS/MS analysis
Assay type: ADME, organism-based, Canis lupus familiaris
Parameters: dose 150 mg/kg, route oral, time infinity
Conditions: in vivo
measured-attribute: AUC(0-inf)

- CCCC(=O)Nc1ccn([C@@H]2O[C@H](CO[P@@](=O)(N[C@@H](C)C(=O)OC(C)C)Oc3ccccc3)[C@@H](O)[C@@]2(C)F)c(=O)n1: 411 ng·h/mL

* * *

Assay: Cmax in Beagle dog at 150 mg/kg, administered via oral gavage measured up to 24 hrs post dose by LC/MS/MS analysis
Assay type: ADME, organism-based, Canis lupus familiaris
Parameters: dose 150 mg/kg, route oral
Conditions: in vivo
measured-attribute: Cmax

* CCCC(=O)Nc1ccn([C@@H]2O[C@H](CO[P@@](=O)(N[C@@H](C)C(=O)OC(C)C)Oc3ccccc3)[C@@H](O)[C@@]2(C)F)c(=O)n1 | 51.3 ng/mL

* * *

Tested on: Huh-7
Assay: Cytotoxicity against human HuH7 cells assessed as reduction in cell viability up to 100 uM after 72 hrs by Cell Titer-Fluor Cell assay
Assay type: cell-based
Conditions: huh-7, 72 h
measured-attribute: Activity

* CCCCCOC(=O)Nc1ccn([C@@H]2O[C@H](CO[P@@](=O)(N[C@@H](C)C(=O)OC(C)C)Oc3ccccc3)[C@@H](O)[C@@]2(C)F)c(=O)n1 | Non-Toxic
* CCC(CC)OC(=O)Nc1ccn([C@@H]2O[C@H](CO[P@@](=O)(N[C@@H](C)C(=O)OC(C)C)Oc3ccccc3)[C@@H](O)[C@@]2(C)F)c(=O)n1 | Non-Toxic
* CC(=O)Nc1ccn([C@@H]2O[C@H](CO[P@@](=O)(N[C@@H](C)C(=O)OC(C)C)Oc3ccccc3)[C@@H](O)[C@@]2(C)F)c(=O)n1 | Non-Toxic

* * *

Assay: Half life in human liver S9 fraction at 10 uM by LC/MS/MS analysis
Type: ADME
half-life at 10 µM overview
measured-attribute: half-life at 10 µM (min)

* CC(C)OC(=O)[C@H](C)N[P@](=O)(OC[C@H]1O[C@@H](n2ccc(=O)[nH]c2=O)[C@](C)(F)[C@@H]1O)Oc1ccccc1 | 48.1
* CCCC(=O)Nc1ccn([C@@H]2O[C@H](CO[P@@](=O)(N[C@@H](C)C(=O)OC(C)C)Oc3ccccc3)[C@@H](O)[C@@]2(C)F)c(=O)n1 | 9.6
* CC(C)OC(=O)[C@H](C)N[P@](=O)(OC[C@H]1O[C@@H](n2ccc(N)nc2=O)[C@](C)(F)[C@@H]1O)Oc1ccccc1 | 107

* * *

System: Huh-7
Assay: Cytotoxicity against human HuH7 cells assessed as reduction in cell viability up to 100 uM after 72 hrs by Cell Titer-Fluor Cell assay
Assay type: cell-based
Details: huh-7, 72 h
measured-attribute: Activity

• CC(C)OC(=O)[C@H](C)N[P@](=O)(OC[C@H]1O[C@@H](n2ccc(N)nc2=O)[C@](C)(F)[C@@H]1O)Oc1ccccc1 = Non-Toxic
• COc1ccc(C(=O)Nc2ccn([C@@H]3O[C@H](CO[P@@](=O)(N[C@@H](C)C(=O)OC(C)C)Oc4ccccc4)[C@@H](O)[C@@]3(C)F)c(=O)n2)cc1 = Non-Toxic
• CC(C)OC(=O)[C@H](C)N[P@](=O)(OC[C@H]1O[C@@H](n2ccc(NC(=O)C3CC3)nc2=O)[C@](C)(F)[C@@H]1O)Oc1ccccc1 = Non-Toxic
• CC(C)OC(=O)Nc1ccn([C@@H]2O[C@H](CO[P@@](=O)(N[C@@H](C)C(=O)OC(C)C)Oc3ccccc3)[C@@H](O)[C@@]2(C)F)c(=O)n1 = Non-Toxic
• CCCOC(=O)Nc1ccn([C@@H]2O[C@H](CO[P@@](=O)(N[C@@H](C)C(=O)OC(C)C)Oc3ccccc3)[C@@H](O)[C@@]2(C)F)c(=O)n1 = Non-Toxic
• CC(C)OC(=O)[C@H](C)N[P@](=O)(OC[C@H]1O[C@@H](n2ccc(=O)[nH]c2=O)[C@](C)(F)[C@@H]1O)Oc1ccccc1 [SOFOSBUVIR] = Non-Toxic
• CC(C)OC(=O)[C@H](C)N[P@](=O)(OC[C@H]1O[C@@H](n2ccc(NC(=O)Cc3ccccc3)nc2=O)[C@](C)(F)[C@@H]1O)Oc1ccccc1 = Non-Toxic
• CCC(=O)Nc1ccn([C@@H]2O[C@H](CO[P@@](=O)(N[C@@H](C)C(=O)OC(C)C)Oc3ccccc3)[C@@H](O)[C@@]2(C)F)c(=O)n1 = Non-Toxic
